Test system: MALME-3M melanoma
Protocol description: NCI tumour cell line growth inhibition, 48 h
Listed compounds paired with reported TGI

Worked examples follow.
>>> observed_result("COc1ccc(C2/C(=C(\\O)c3ccccc3)C(=O)C(O)(CC(=O)c3ccccc3)N2c2ccc(OC)cc2)cc1 (stereo not given)")
"75.7 µM"
>>> observed_result("NC(=S)N/N=C/c1c[nH]c2ccccc12")
"> 100 µM"
>>> observed_result("CCCc1nc(N)nc(C(=O)Nc2cccc(C(F)(F)F)c2)c1CC")
"> 100 µM"
>>> observed_result("C=C1C(=O)O[C@@H]2O[C@@]3(C)CC[C@H]4[C@H](C)CC[C@@H]1[C@@]24O3")
"86.4 µM"

# evaluate next
TGI for "O=C(C=P(c1ccccc1)(c1ccccc1)c1ccccc1)c1ccc(-c2cccc([N+](=O)[O-])c2)cc1" is 9.31 µM
